system: Saccharomyces cerevisiae; assay: Inhibition of yeast RNA polymerase 2 at 100 uM
measured property: inhibition (%)
Answers are plain numbers, in %.

Some molecules with recorded inhibition:
Please report the recorded inhibition for NC(=O)c1ccc(C(=O)Nc2ccc(-n3ccnc3)nc2)cc1 .
10.5

Which inhibition value is on record for NS(=O)(=O)c1ccc(C(=O)Nc2ccc(-n3ccnc3)nc2)cc1 ?
14.7

Query: inhibition; subject: NC(=O)c1ccc(C(=O)Nc2ccc(-n3cncn3)nc2)cc1
5.2

May I ask what inhibition has been recorded for NS(=O)(=O)c1ccc(C(=O)Nc2ccc(-n3cncn3)nc2)cc1 ?
9.3

Recorded inhibition of N#Cc1ccc(C(=O)Nc2ccc(-n3cncn3)nc2)cc1 , please.
12

Turning to the following molecule.
If you can, please state the reported inhibition value of N#Cc1ccc(C(=O)Nc2ccc(-n3ccnc3)nc2)cc1 .
17.6

---

assay: Inhibition of chymotrypsin at 100 uM
measured property: inhibition (%)
Give bare numbers, in %.

Value lookup for inhibition; key = NS(=O)(=O)c1ccc(C(=O)Nc2ccc(-n3cncn3)nc2)cc1
0.6

If you can, please state the reported inhibition value of NC(=O)c1ccc(C(=O)Nc2ccc(-n3cncn3)nc2)cc1 .
1.5

inhibition for N#Cc1ccc(C(=O)Nc2ccc(-n3cncn3)nc2)cc1 ?
0

Which inhibition is reported for this compound? N#Cc1ccc(C(=O)Nc2ccc(-n3ccnc3)nc2)cc1
1.8

Parameter requested: inhibition. Apply to each item below.
1. NC(=O)c1ccc(C(=O)Nc2ccc(-n3ccnc3)nc2)cc1
2. NS(=O)(=O)c1ccc(C(=O)Nc2ccc(-n3ccnc3)nc2)cc1

0.1
0

---

test system: Escherichia coli; assay: Inhibition of Escherichia coli DNA dependent RNA polymerase at 100 uM after 2 hrs by SYBR Green-based spectrophotometric analysis
measured property: inhibition
Reply with the number and its unit after it.

Below are worked cases with known answers.
Using the record for NS(=O)(=O)c1ccc(C(=O)Nc2ccc(-c3ccco3)nc2)cc1 , report its inhibition.
12.9%

Returns the measured inhibition for the input compound. Input: CS(=O)(=O)c1ccc(C(=O)Nc2ccc(-n3cncn3)nc2)cc1
0%

May I ask what inhibition has been recorded for NS(=O)(=O)c1ccc(C(=O)Nc2cccnc2)cc1 ?
0%

# lookup: inhibition of COC(=O)c1ccc(C(=O)Nc2ccc(-n3ccnc3)nc2)cc1
0%

# batch size: 7; output inhibition per entry
1. NS(=O)(=O)c1ccc(C(=O)Nc2cnc3ccccc3c2)cc1
2. O=C(Nc1ccc(-n2cncn2)nc1)c1ccccc1
3. N#Cc1ccc(C(=O)Nc2ccc(-c3ccccc3)nc2)cc1
4. N#Cc1ccc(C(=O)Nc2cnc3ccccc3c2)cc1
5. O=C(O)c1ccc(C(=O)Nc2ccc(-n3ccnc3)nc2)cc1
6. NS(=O)(=O)c1ccc(C(=O)Nc2ccc(N3CCCC3)nc2)cc1
7. NS(=O)(=O)c1ccc(C(=O)Nc2ccc(-c3ccccc3)nc2)cc1

1. 0%
2. 0%
3. 10.9%
4. 0%
5. 0%
6. 17.9%
7. 32.9%

---

I'd be grateful if you could share measured inhibition for these entries.
experiment: Inhibition of malate dehydrogenase at 100 uM
One number for each entry, in %.

Example cases with answers are listed next.
# query: inhibition of entry N#Cc1ccc(C(=O)Nc2ccc(-n3ccnc3)nc2)cc1
0.6

# inhibition lookup, item N#Cc1ccc(C(=O)Nc2ccc(-n3cncn3)nc2)cc1
0

Fill blank: measured inhibition of the compound NS(=O)(=O)c1ccc(C(=O)Nc2ccc(-n3ccnc3)nc2)cc1 is ____.
0.5

Items follow; give inhibition for each.
1. NC(=O)c1ccc(C(=O)Nc2ccc(-n3cncn3)nc2)cc1
2. NC(=O)c1ccc(C(=O)Nc2ccc(-n3ccnc3)nc2)cc1
3. NS(=O)(=O)c1ccc(C(=O)Nc2ccc(-n3cncn3)nc2)cc1

0
0
1.4
